Recorded values, source patent US20150147274A1.

# system-tested: T1, MET928 (cMET protein derived from construct 25-928) (human, UniProt P08581 25-928)
# T1 construct: MET ectodomain, residues 1-24 are the leader; produced in Lec 8 cells; background text says the ectodomain is furin-cleaved into alpha (25-307) and beta chains; biotinylated form used in selections; also called MET928 extracellular domain; Met extracellular domain
# T1 sequence (P08581 25-928): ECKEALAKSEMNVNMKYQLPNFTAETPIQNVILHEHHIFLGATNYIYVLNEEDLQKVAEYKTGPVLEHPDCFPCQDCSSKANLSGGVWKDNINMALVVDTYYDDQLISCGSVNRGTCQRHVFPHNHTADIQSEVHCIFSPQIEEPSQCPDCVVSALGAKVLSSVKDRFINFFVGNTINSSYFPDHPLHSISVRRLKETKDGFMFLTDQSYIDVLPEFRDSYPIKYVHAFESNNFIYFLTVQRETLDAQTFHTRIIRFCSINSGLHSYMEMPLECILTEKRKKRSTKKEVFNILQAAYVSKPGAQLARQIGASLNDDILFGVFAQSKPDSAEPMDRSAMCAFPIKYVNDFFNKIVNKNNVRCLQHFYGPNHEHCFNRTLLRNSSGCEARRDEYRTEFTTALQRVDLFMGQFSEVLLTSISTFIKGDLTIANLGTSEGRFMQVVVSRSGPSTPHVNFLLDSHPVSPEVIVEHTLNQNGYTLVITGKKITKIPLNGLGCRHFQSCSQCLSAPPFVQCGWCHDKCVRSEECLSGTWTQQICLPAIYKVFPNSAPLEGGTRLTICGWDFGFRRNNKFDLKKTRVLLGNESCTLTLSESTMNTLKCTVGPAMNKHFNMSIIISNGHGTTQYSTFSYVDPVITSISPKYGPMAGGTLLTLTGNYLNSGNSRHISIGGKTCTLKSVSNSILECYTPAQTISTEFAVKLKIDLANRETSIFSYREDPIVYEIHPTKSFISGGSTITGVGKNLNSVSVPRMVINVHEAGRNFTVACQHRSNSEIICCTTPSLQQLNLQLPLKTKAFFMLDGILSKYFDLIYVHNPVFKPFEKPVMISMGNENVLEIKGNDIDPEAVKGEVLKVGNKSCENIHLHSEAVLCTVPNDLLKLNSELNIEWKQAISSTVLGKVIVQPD
# assay-name: Biacore SPR, MET-928 on chip, Fab format
quantity: pKd
# pKd: negative log10 of molar concentration; output just the value

Record summary for 110_A06 Fab (His/tri-FLAG tagged, hinged) (Fab, V domains shown, Fab from pBIOCAM7-3F, hinged, hexahistidine and tri-FLAG tags on the heavy chain) VH: QMQLVQSGAEVKKPGAPVKVSCKVSGYTFTDYYMHWVQQAPGKGLEWMGLVDPEDGETIYAEKFQGRVTITADTSTDTAYMELSSLRSEDTAVYYCATDATTPYWGMQLWGQGTLVTVSS VL: DIQMTQSPSSLSASVGDRVTITCQASQDISNYLNWYQQKPGRAPKVLIYDASNLETGVPSRFSGSGSGTEFTLTISNLRPDDFATYYCQQGDSFPLTFGGGTKVEIK : reported pKd = 8.72

For 107_A01 Fab (His/tri-FLAG tagged, hinged) (Fab, V domains shown, Fab from pBIOCAM7-3F, hinged, hexahistidine and tri-FLAG tags on the heavy chain) VH: QMQLVQSGAEVKKPGAPVKVSCKVSGYTFTDYYMHWVQQAPGKGLEWMGLVDPEDGETIYAEKFQGRVTITADTSTDTAYMELSSLRSEDTAVYYCATDATTPYWGMVSWGQGTLVTVSS VL: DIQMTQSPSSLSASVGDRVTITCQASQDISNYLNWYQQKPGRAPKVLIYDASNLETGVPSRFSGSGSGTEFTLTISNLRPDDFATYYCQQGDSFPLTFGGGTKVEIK the binder record lists pKd as 8.84

Item: 110_A10 Fab (His/tri-FLAG tagged, hinged) (Fab, V domains shown, Fab from pBIOCAM7-3F, hinged, hexahistidine and tri-FLAG tags on the heavy chain) VH: QMQLVQSGAEVKKPGAPVKVSCKVSGYTFTDYYMHWVQQAPGKGLEWMGLVDPEDGETIYAEKFQGRVTITADTSTDTAYMELSSLRSEDTAVYYCATDATTPYWGMQTWGQGTLVTVSS VL: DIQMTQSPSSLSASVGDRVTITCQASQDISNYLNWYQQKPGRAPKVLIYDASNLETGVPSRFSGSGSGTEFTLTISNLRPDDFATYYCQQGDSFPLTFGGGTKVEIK | pKd: 8.65

Looking up 107_A08 Fab (His/tri-FLAG tagged, hinged) (Fab, V domains shown, Fab from pBIOCAM7-3F, hinged, hexahistidine and tri-FLAG tags on the heavy chain) VH: QMQLVQSGAEVKKPGAPVKVSCKVSGYTFTDYYMHWVQQAPGKGLEWMGLVDPEDGETIYAEKFQGRVTITADTSTDTAYMELSSLRSEDTAVYYCATDATTPYWGMVEWGQGTLVTVSS VL: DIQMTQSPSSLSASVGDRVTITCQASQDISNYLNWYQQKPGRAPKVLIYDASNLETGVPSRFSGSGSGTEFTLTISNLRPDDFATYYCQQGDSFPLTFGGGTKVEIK , I see its pKd listed as 8.64
